Target: Neurogenic locus notch homolog protein 3 (Homo sapiens) (UniProt Q9UM47)
Sequence (Q9UM47 whole entry, looked up): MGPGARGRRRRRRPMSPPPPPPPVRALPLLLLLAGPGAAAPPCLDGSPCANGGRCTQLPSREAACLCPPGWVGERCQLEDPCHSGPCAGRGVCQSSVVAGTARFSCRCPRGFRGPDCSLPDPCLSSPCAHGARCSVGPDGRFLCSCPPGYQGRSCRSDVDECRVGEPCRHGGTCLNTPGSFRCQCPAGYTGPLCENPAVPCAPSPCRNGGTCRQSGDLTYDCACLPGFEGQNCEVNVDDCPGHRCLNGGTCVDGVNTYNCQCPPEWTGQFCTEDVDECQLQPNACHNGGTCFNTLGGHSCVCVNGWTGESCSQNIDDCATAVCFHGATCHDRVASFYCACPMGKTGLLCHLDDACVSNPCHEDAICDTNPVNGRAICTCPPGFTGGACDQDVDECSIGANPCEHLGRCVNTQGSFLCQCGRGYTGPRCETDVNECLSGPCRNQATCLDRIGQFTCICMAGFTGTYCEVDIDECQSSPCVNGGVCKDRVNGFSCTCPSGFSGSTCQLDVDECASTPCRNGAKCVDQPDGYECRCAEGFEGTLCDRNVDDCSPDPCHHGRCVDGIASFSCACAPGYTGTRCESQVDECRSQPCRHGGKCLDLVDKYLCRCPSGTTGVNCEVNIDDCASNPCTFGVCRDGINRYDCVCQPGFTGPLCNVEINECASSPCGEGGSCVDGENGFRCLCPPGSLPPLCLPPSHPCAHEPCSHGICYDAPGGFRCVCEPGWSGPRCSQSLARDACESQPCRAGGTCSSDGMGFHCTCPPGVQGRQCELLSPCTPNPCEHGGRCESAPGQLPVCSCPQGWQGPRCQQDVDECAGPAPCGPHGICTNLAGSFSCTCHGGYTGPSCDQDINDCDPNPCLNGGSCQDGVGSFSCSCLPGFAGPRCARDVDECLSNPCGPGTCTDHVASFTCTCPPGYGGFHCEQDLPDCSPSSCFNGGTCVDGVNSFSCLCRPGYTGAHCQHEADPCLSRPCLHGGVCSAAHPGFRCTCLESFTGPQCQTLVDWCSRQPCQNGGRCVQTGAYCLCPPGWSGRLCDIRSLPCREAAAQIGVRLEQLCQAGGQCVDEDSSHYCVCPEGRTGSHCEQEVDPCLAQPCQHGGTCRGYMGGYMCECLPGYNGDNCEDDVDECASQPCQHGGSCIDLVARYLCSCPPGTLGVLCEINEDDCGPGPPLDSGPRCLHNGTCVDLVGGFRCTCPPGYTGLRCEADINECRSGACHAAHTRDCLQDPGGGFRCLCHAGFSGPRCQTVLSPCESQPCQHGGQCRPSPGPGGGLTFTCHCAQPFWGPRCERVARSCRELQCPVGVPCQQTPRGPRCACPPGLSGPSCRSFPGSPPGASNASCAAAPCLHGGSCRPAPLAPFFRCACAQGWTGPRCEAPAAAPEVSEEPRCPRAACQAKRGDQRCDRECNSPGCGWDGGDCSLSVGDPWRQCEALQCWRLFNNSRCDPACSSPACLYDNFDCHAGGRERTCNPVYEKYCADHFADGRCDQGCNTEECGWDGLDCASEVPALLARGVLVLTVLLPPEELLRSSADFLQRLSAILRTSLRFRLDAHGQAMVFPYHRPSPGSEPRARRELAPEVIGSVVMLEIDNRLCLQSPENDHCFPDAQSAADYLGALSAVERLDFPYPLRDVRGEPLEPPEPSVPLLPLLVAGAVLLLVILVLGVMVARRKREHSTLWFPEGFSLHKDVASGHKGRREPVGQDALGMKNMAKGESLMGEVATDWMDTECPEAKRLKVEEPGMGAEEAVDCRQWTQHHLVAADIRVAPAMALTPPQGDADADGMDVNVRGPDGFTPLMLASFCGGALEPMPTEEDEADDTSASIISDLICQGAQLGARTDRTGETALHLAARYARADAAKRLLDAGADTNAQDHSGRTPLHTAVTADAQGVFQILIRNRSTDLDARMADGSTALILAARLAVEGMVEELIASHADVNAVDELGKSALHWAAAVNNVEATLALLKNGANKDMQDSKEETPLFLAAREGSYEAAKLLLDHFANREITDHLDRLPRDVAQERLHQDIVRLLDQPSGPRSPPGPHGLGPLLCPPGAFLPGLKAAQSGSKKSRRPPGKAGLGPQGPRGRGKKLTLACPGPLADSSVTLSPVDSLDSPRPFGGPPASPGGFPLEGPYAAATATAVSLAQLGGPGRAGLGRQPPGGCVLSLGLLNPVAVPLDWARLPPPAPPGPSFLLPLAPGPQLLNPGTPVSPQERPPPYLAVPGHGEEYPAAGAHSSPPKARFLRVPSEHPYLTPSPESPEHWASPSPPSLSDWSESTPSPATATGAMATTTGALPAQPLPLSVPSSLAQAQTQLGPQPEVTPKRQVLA
Assay: small molecules binding NOTCH3 protein – biochemical, 635/667 nm fluorescence, primary screen (AID 1096)
Conditions: small-molecule microarray, 635 nm fluorescence, higher = more signal
ASSAY_ENDPOINT: composite z-score

MOLECULE | ASSAY_ENDPOINT | MEASURED_RESULT
CCCNC(=O)[C@@]1(Sc2ccc(C)cc2)CC(=O)N(Cc2ccccc2Cl)[C@@H]1c1ccc(CO)cc1I | composite z-score | -0.502
C=CCC(OC(C)=O)[C@@H]1[C@@H](N(Cc2cc3ccccc3o2)C(=O)Cc2ccc(OC)cc2)c2cc(OCCCO)ccc2N1C(=O)c1ccc2ccccc2n1 (stereo not given in full) | composite z-score | 0.0707
CCCCC(O)C1C=CC2C(=O)N(c3ccccc3)C(=O)C2N1Nc1ccc([N+](=O)[O-])cc1 (stereo not given) | composite z-score | 1.11
O=C(NC1CC1)[C@@H]1c2ccccc2C(=O)N(CC23CC4CC(CC(C4)C2)C3)[C@H]1c1ccc(CO)cc1 | composite z-score | 1.02
COCCCNC(=O)[C@@H]1c2ccccc2C(=O)N(Cc2ccc(OC(F)(F)F)cc2)[C@H]1c1ccc(CO)cc1 | composite z-score | 0.554
